# Experimental Target: Hypoxia-inducible factor 1-alpha
# Assay Method Text: Inhibition of HIF-1 alpha transcriptional activity in human U-251 cells incubated for 24 hrs under hypoxia condition by luciferse reporter assay
pIC50: −log10 of the molar value.
Readout: pIC50

1) COc1ccc(/C=C/C(=O)c2ccc3c(c2O)C=CC(C)(C)O3)cc1OCCN1CCC(C)CC1    5.40
2) COc1ccc(/C=C/C(=O)c2ccc3c(c2O)C=CC(C)(C)O3)cc1O    5.16
3) CCN(CC)CCOc1ccc(/C=C/C(=O)c2ccc3c(c2O)C=CC(C)(C)O3)cc1OC    5.20
4) COc1ccc(/C=C/C(=O)c2ccc3c(c2O)C=CC(C)(C)O3)cc1OCCCN1CCOCC1    5.48
5) CCN(CC)CCCOc1ccc(/C=C/C(=O)c2ccc3c(c2O)C=CC(C)(C)O3)cc1OC    5.20
6) COc1ccc(/C=C/C(=O)c2ccc3c(c2O)C=CC(C)(C)O3)cc1OCCN1CCN(C)CC1    5.44
7) COc1ccc(/C=C/C(=O)c2ccc3c(c2O)C=CC(C)(C)O3)cc1OCCCN1CCCCC1    5.27
8) COc1cc(/C=C/C(=O)c2ccc3c(c2O)C=CC(C)(C)O3)ccc1OCCCN1CCCC1    5.53
9) COc1ccc(/C=C/C(=O)c2ccc3c(c2O)C=CC(C)(C)O3)cc1OCCCN1CCC(C)CC1    5.21

###

# Experimental Target: Hypoxia-inducible factor 1-alpha
# Assay Method Text: Inhibition of HIF-1 alpha transcriptional activity in human U-251 cells incubated for 24 hrs under hypoxia condition by luciferse reporter assay
pIC50: −log10 of the molar value.
pIC50 values for the molecules below.
Readout: pIC50

1. COc1cc(/C=C/C(=O)c2ccc3c(c2O)C=CC(C)(C)O3)ccc1OCCCN1CCC(C)CC1    5.42
2. COc1cc(/C=C/C(=O)c2ccc3c(c2O)C=CC(C)(C)O3)ccc1OCCN1CCCC1    5.19
3. COc1cc(/C=C/C(=O)c2ccc3c(c2O)C=CC(C)(C)O3)ccc1OCCCN1CCN(C)CC1    5.24
4. COc1ccc(/C=C/C(=O)c2ccc3c(c2O)C=CC(C)(C)O3)cc1OCCN1CCOCC1    4.97
5. COc1ccc(/C=C/C(=O)c2ccc3c(c2O)C=CC(C)(C)O3)cc1OCCCN1CCCC1    5.62
6. COc1cc(/C=C/C(=O)c2ccc3c(c2O)C=CC(C)(C)O3)ccc1OCCN1CCN(C)CC1    5.44
7. COc1cc(/C=C/C(=O)c2ccc3c(c2O)C=CC(C)(C)O3)ccc1OCCCN1CCOCC1    4.98
8. COc1ccc(/C=C/C(=O)c2ccc3c(c2O)C=CC(C)(C)O3)cc1OCCN1CCCC1    5.62
9. COc1cc(/C=C/C(=O)c2ccc3c(c2O)C=CC(C)(C)O3)ccc1OCCCN1CCCCC1    5.26
